- experiment_notes: Clinical study: plasma miglustat PK
- Format: in vivo, human
- experimental_context: human, plasma, oral, 20 mg/kg, 260 mg miglustat, single dose; with 20 mg/kg ATB200; read-out: Vz/F (arithmetic mean)
measurement_name: Vd/F (L)
Respond with the bare value in L.

# compound CCCCN1C[C@H](O)[C@@H](O)[C@H](O)[C@H]1CO [miglustat] ; its Vd/F = 79.2

* * *

- experiment_notes: Clinical study: plasma miglustat PK
- Assay type: in vivo, human
- experimental_context: human, plasma, oral, 20 mg/kg, 130 mg miglustat, single dose; with 20 mg/kg ATB200; read-out: AUC0-t (geometric mean)
measurement_name: AUC(0-t) (µg·h/mL)
Quick reminder: number only, in µg·h/mL, skip the unit.

molecule CCCCN1C[C@H](O)[C@@H](O)[C@H](O)[C@H]1CO , AUC(0-t) observed: 12.6

* * *

- experiment_notes: Clinical study: plasma miglustat PK
- Assay type: in vivo, human
- experimental_context: human, plasma, oral, 20 mg/kg, 260 mg miglustat, single dose; with 20 mg/kg ATB200; read-out: tmax (median)
measurement_name: Tmax (h)
Number in h, nothing else.

Entry CCCCN1C[C@H](O)[C@@H](O)[C@H](O)[C@H]1CO — recorded Tmax = 2.75

* * *

- experiment_notes: Miglustat toxicokinetics
- Type: in vivo, cynomolgus monkey
- experimental_context: cynomolgus monkey, plasma, po, 25 mg/kg, Day 85; 50 mg/kg ATB200 + 25 mg/kg miglustat; read-out: Vz/F
measurement_name: Vd/F (L)
Report as a plain number; the unit L is understood.

Item: CCCCN1C[C@H](O)[C@@H](O)[C@H](O)[C@H]1CO | Vd/F: 23.3

* * *

- experiment_notes: Clinical study: plasma miglustat PK
- Type: in vivo, human
- experimental_context: human, plasma, oral, 20 mg/kg, 130 mg miglustat, multiple dose; with 20 mg/kg ATB200; read-out: tmax (median)
measurement_name: Tmax (h)
Please give a number only; it is taken to be in h.

What the record says about CCCCN1C[C@H](O)[C@@H](O)[C@H](O)[C@H]1CO : Tmax is 3

* * *

- experiment_notes: Clinical study: plasma miglustat PK
- Type: in vivo, human
- experimental_context: human, plasma, oral, 20 mg/kg, 130 mg miglustat, single dose; with 20 mg/kg ATB200; read-out: Vz/F (arithmetic mean)
measurement_name: Vd/F (L)
Reply with just the number (in L).

The reported Vd/F of the compound CCCCN1C[C@H](O)[C@@H](O)[C@H](O)[C@H]1CO was 65.4

* * *

- experiment_notes: Miglustat toxicokinetics
- Type: in vivo, cynomolgus monkey
- experimental_context: cynomolgus monkey, plasma, po, 175 mg/kg, Day 85; 175 mg/kg miglustat monotherapy; read-out: t1/2 (converted)
measurement_name: half-life
Please answer using the number first and the unit second.

Briefly, half-life measured for CCCCN1C[C@H](O)[C@@H](O)[C@H](O)[C@H]1CO : 6.66 h

* * *

- experiment_notes: Miglustat toxicokinetics
- Assay type: in vivo, cynomolgus monkey
- experimental_context: cynomolgus monkey, plasma, po, 175 mg/kg, Day 1; 100 mg/kg ATB200 + 175 mg/kg miglustat
measurement_name: Tmax (h)
The response must be a number in h with no trailing unit.

Measured Tmax of CCCCN1C[C@H](O)[C@@H](O)[C@H](O)[C@H]1CO : 2.69

* * *

- experiment_notes: Miglustat toxicokinetics
- Assay type: in vivo, cynomolgus monkey
- experimental_context: cynomolgus monkey, plasma, po, 175 mg/kg, Day 1; 175 mg/kg miglustat monotherapy
- Experimental: Analysis of miglustat concentration was carried out using a LC-MS/MS method analogous to that described for analysis of duvoglustat concentration by Richie Khanna, Allan C. Powe Jr., Yi Lun, Rebecca Soska, Jessie Feng, Rohini Dhulipala, Michelle Frascella, Anadina Garcia, Lee J. Pellegrino, Su Xu, Nastry Brignol, Matthew J. Toth, Hung V. Do, David J. Lockhart, Brandon A. Wustman, Kenneth J. Valenzano. […] Miglustat TK parameters were estimated by the log-linear trapezoidal rule.
measurement_name: Cmax (ng/mL)
Supply the numeric figure in ng/mL, leaving out any unit text.

Notebook: CCCCN1C[C@H](O)[C@@H](O)[C@H](O)[C@H]1CO , Cmax read as 16400

* * *

- experiment_notes: Clinical study: plasma miglustat PK
- Assay type: in vivo, human
- experimental_context: human, plasma, oral, 20 mg/kg, 130 mg miglustat, single dose; with 20 mg/kg ATB200; read-out: Cmax (geometric mean)
measurement_name: Cmax (ng/mL)
Please give a number only; it is taken to be in ng/mL.

The compound listed as CCCCN1C[C@H](O)[C@@H](O)[C@H](O)[C@H]1CO [miglustat] has a reported Cmax of 1650

* * *

- experiment_notes: Miglustat toxicokinetics
- Type: in vivo, cynomolgus monkey
- experimental_context: Cambodian origin, cynomolgus monkey, plasma, po, 175 mg/kg, Day 85; 100 mg/kg ATB200 + 175 mg/kg miglustat
measurement_name: Cmax (ng/mL)
Your answer is read as ng/mL, so omit the unit and give the number.

The value of Cmax measured for the compound CCCCN1C[C@H](O)[C@@H](O)[C@H](O)[C@H]1CO [miglustat] turned out to be 22000

* * *

- experiment_notes: Miglustat toxicokinetics
- Format: in vivo, cynomolgus monkey
- experimental_context: cynomolgus monkey, plasma, po, 25 mg/kg, Day 1; 50 mg/kg ATB200 + 25 mg/kg miglustat; read-out: t1/2 (converted)
measurement_name: half-life (h)
Kindly provide the numeric value in h only, without the unit symbol.

Notebook: CCCCN1C[C@H](O)[C@@H](O)[C@H](O)[C@H]1CO , half-life read as 7.44

* * *

- experiment_notes: Miglustat toxicokinetics
- Assay type: in vivo, cynomolgus monkey
- experimental_context: cynomolgus monkey, plasma, po, 25 mg/kg, Day 1; 50 mg/kg ATB200 + 25 mg/kg miglustat
measurement_name: Tmax (h)
The reply should contain only the number, in h.

Notebook: CCCCN1C[C@H](O)[C@@H](O)[C@H](O)[C@H]1CO , Tmax read as 2.06

* * *

- experiment_notes: Miglustat toxicokinetics
- Assay type: in vivo, cynomolgus monkey
- experimental_context: cynomolgus monkey, plasma, oral, postdose; across groups and days
measurement_name: Tmax

According to the records, this compound CCCCN1C[C@H](O)[C@@H](O)[C@H](O)[C@H]1CO displays Tmax of 2 to 4 h

* * *

- experiment_notes: Clinical study: plasma miglustat PK
- Format: in vivo, human
- experimental_context: human, plasma, oral, 20 mg/kg, 130 mg miglustat, single dose; with 20 mg/kg ATB200; read-out: tmax (median)
measurement_name: Tmax (h)
# unit: h | format: bare number

// Tmax lookup, compound = CCCCN1C[C@H](O)[C@@H](O)[C@H](O)[C@H]1CO , result: 2.75

* * *

- experiment_notes: Miglustat toxicokinetics
- Format: in vivo, cynomolgus monkey
- experimental_context: cynomolgus monkey, plasma, po, 175 mg/kg, Day 1; 175 mg/kg miglustat monotherapy; read-out: Vz/F
measurement_name: Vd/F (L)
The figure you give is taken to be in L; do not add the unit.

compound CCCCN1C[C@H](O)[C@@H](O)[C@H](O)[C@H]1CO , Vd/F observed: 35.9

* * *

measurement_name: pIC50
Hey, just a heads up that pIC50 is the negative log base 10 of the concentration in molar.

The compound CCCCN1C[C@H](O)[C@@H](O)[C@H](O)[C@H]1CO [miglustat] , when measured on acid α-glucosidase (Homo sapiens, UniProt P10253), yielded pIC50 of 5.76

* * *

- experiment_notes: Population PK model of duvoglustat in plasma and tissue
- Format: in vivo, human
- experimental_context: human, plasma and tissue, typical value; read-out: Central compartment clearance (CL2) (converted)
measurement_name: clearance (mL/min)
Provide the reading as a plain figure in mL/min.

Documented clearance of OC[C@H]1NC[C@H](O)[C@@H](O)[C@@H]1O : 3.42

* * *

- experiment_notes: Miglustat toxicokinetics
- Assay type: in vivo, cynomolgus monkey
- experimental_context: cynomolgus monkey, plasma, po, 25 mg/kg, Day 85; 50 mg/kg ATB200 + 25 mg/kg miglustat; read-out: t1/2 (converted)
measurement_name: half-life (min)
Write it as a number; the unit min goes unstated.

So, CCCCN1C[C@H](O)[C@@H](O)[C@H](O)[C@H]1CO ? Its half-life was 494

* * *

- experiment_notes: Miglustat toxicokinetics
- Assay type: in vivo, cynomolgus monkey
- experimental_context: Cambodian origin, cynomolgus monkey, plasma, po, 175 mg/kg, Day 85; 100 mg/kg ATB200 + 175 mg/kg miglustat
measurement_name: AUC(0-t) (µg·h/mL)
Respond with the bare value in µg·h/mL.

AUC(0-t) for CCCCN1C[C@H](O)[C@@H](O)[C@H](O)[C@H]1CO [miglustat] is 216

* * *

- experiment_notes: Miglustat toxicokinetics
- Assay type: in vivo, cynomolgus monkey
- experimental_context: cynomolgus monkey, plasma, po, 25 mg/kg, Day 1; 50 mg/kg ATB200 + 25 mg/kg miglustat; read-out: Vz/F
measurement_name: Vd/F
Write the figure, then the unit, nothing else.

// field: Vd/F; key: CCCCN1C[C@H](O)[C@@H](O)[C@H](O)[C@H]1CO ; value = 20.5 L
